The values you see were collected from patent US12491191B2.

system: small cell lung cancer cell lines; assay: Cytotoxicity in 16 small cell lung cancer cell lines; type: cell-based, human; details: all of 16 small cell lung cancer cell lines except NCI-H889
pIC50: −log10 of the molar value.
Measured Parameter: pIC50

**Query** Need pIC50, item O=C1N[C@@H]2C(=C[C@H](O)[C@@H](O)[C@H]2O)c2cc3c(c(O)c21)OCO3 [narciclasine]
**Result** > 7.00
